Entry source: the supplement of paper PMC6555819

Tested on: VDR homodimer (NR concentration 270 nM)
Assay: PBM binding z-score (relative to random genomic background probes); higher = stronger binding; sequences stand for … in GC…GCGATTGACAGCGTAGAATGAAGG
Property Measured: PBM binding z-score

> print(dat)
                        chain.sequence                                      tgt    property.measured  numeric.readout
 1  CGTCCAATGTCAATGCTAGGTCAGTGAAAGCATT  VDR homodimer (NR concentration 270 nM)  PBM binding z-score            0.181
 2  CTCGAAAGGTCGTGCTCATGTGAGTATACCAAAC  VDR homodimer (NR concentration 270 nM)  PBM binding z-score            0.995
 3  CGAACTAGGTCAAAGACAGTGAATCTCCGCACGC  VDR homodimer (NR concentration 270 nM)  PBM binding z-score            0.508
 4  ACTAGTTGGTCAGCTAAGGTCACACACAATTCGG  VDR homodimer (NR concentration 270 nM)  PBM binding z-score             2.63
 5  TCTGCTAGGTCAGTTGGTCAGCTAACGAGCTGCC  VDR homodimer (NR concentration 270 nM)  PBM binding z-score           -0.401
 6  GGAACGAGGGCATACGAGTTGATAGCATGGCGAT  VDR homodimer (NR concentration 270 nM)  PBM binding z-score             2.37
 7  CGTCCAAGGTCAGTAGGTCAGTGAAAGCGACGTG  VDR homodimer (NR concentration 270 nM)  PBM binding z-score             1.94
 8  ATATGTACGTTATCGGGTCATTCAGTTTGCGCAT  VDR homodimer (NR concentration 270 nM)  PBM binding z-score              4.2
 9  AGAACGAGGGGACGCTGAGTTGATAGCAGAGTAG  VDR homodimer (NR concentration 270 nM)  PBM binding z-score             1.16
10  CAAACTAGGTCACAGAGATCAAAGTCCGTGCGTA  VDR homodimer (NR concentration 270 nM)  PBM binding z-score            0.964
11  TGAATGAGGTTATAAGATCCGGGAACGTTGCAAA  VDR homodimer (NR concentration 270 nM)  PBM binding z-score            0.411
12  CAAACTAGGTCACCGGACGGTCAAAGTCCGCATG  VDR homodimer (NR concentration 270 nM)  PBM binding z-score              1.1
13  ATCTCTAGGTAAAAGTGCAGTGAATCCCGAGGAT  VDR homodimer (NR concentration 270 nM)  PBM binding z-score            0.138
14  ACTATTAGTTGACTTAGGGCAACCTATACGACGC  VDR homodimer (NR concentration 270 nM)  PBM binding z-score             0.34
15  CCTACTGGGACATCAGGTCATTGATATCAACGTT  VDR homodimer (NR concentration 270 nM)  PBM binding z-score             2.42
16  GCTGCTAGGTCAACTGGTGGTCAGCTAAAGCTCG  VDR homodimer (NR concentration 270 nM)  PBM binding z-score           0.0223
17  GCTAGTTGGTCAATAAAAGGTCACACACCGGTCG  VDR homodimer (NR concentration 270 nM)  PBM binding z-score             2.11
18  CGTACAAGGTCAGCAGGTCAGTGAAAGCGACGTG  VDR homodimer (NR concentration 270 nM)  PBM binding z-score             1.68
19  ATCGAAAGGTCGAGGTGAGCATAGAGAAAGGGAA  VDR homodimer (NR concentration 270 nM)  PBM binding z-score            0.234
20  GGAACCAGGGCATTCGAGTTGATAGCATGGCGAT  VDR homodimer (NR concentration 270 nM)  PBM binding z-score             1.97
21  GCTGCTAGGTCAGGTTGGGCAGCTAACGGGTACG  VDR homodimer (NR concentration 270 nM)  PBM binding z-score            0.178
22  TCATATAGGTAATACAGGTGAAAGTGGGCATCTA  VDR homodimer (NR concentration 270 nM)  PBM binding z-score            0.577
23  CCTTACGGGTCAAGGTTATAGAACGGGTGGTACG  VDR homodimer (NR concentration 270 nM)  PBM binding z-score             1.14
24  GTACCAAGGTGAATGGGTCGTTGATGAGTAGGCG  VDR homodimer (NR concentration 270 nM)  PBM binding z-score            0.187
25  CCAGACAGGTGAAAGGTTACTCAGTCTGGTACGC  VDR homodimer (NR concentration 270 nM)  PBM binding z-score            0.149
26  ATCTCTGGGTAAAGTTCAGTGAAAGATCGATAGA  VDR homodimer (NR concentration 270 nM)  PBM binding z-score             1.62
27  ACTAGTTGGTCAGCTGCGGTCACACACAATTCGG  VDR homodimer (NR concentration 270 nM)  PBM binding z-score            0.532
28  CGTCCAAGGTCAGAGAGGTCGGTGAATGCCGAGT  VDR homodimer (NR concentration 270 nM)  PBM binding z-score             3.09
29  GCTGCTATGTCAACTGATGGTCAGCTAAAGCTCG  VDR homodimer (NR concentration 270 nM)  PBM binding z-score           -0.702
30  CCTTACGGGTCCCGAGGTTATAGCACGACGAGCG  VDR homodimer (NR concentration 270 nM)  PBM binding z-score            0.162
31  CTCGAAAGGTCGGTTGAGGTGAGTATACGGATAA  VDR homodimer (NR concentration 270 nM)  PBM binding z-score             0.68
32  TCTGGTAGGTCAACGATGGTCAGCTAATCTGCTA  VDR homodimer (NR concentration 270 nM)  PBM binding z-score            0.622
33  ATAATGAGGTTACCAAAGATCAGGGAAACGCTTG  VDR homodimer (NR concentration 270 nM)  PBM binding z-score            0.486
34  CGAACCAGGTCAGAACAGGACAGTGAAGGATGAT  VDR homodimer (NR concentration 270 nM)  PBM binding z-score            0.276
35  CGTCGAAGGTCAAGGTCAGTGAAAGAGACTCGAA  VDR homodimer (NR concentration 270 nM)  PBM binding z-score             1.98
36  TCATCTAGGTAAAAGGTGAAAGTCGGTGTGGTAA  VDR homodimer (NR concentration 270 nM)  PBM binding z-score            0.293
37  GTACCAAGGTGAATAGGTCATTGATGAGTAGGCG  VDR homodimer (NR concentration 270 nM)  PBM binding z-score            0.849
38  ACTAGCAGGCCAAGTTTGGGACACTCAAACAAAG  VDR homodimer (NR concentration 270 nM)  PBM binding z-score           -0.549
39  CCTGCTAGGTCAATGGTCACCTAAAGCAGCTCGC  VDR homodimer (NR concentration 270 nM)  PBM binding z-score            0.427
40  CGAACTAGGTCATTGACAGGACAGCGAATAGTAA  VDR homodimer (NR concentration 270 nM)  PBM binding z-score             1.31
41  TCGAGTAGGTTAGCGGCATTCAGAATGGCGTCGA  VDR homodimer (NR concentration 270 nM)  PBM binding z-score           -0.691
42  TCTGCTACGTCAACGATGGTCAGCTAATCTGCTA  VDR homodimer (NR concentration 270 nM)  PBM binding z-score            -1.61
43  AGAATGAGGTTATTACGATCAGGGAATTGCGGTC  VDR homodimer (NR concentration 270 nM)  PBM binding z-score              1.6
44  TCATATAGGTAGAAGGTGAAAGTCGGTGTGGTAA  VDR homodimer (NR concentration 270 nM)  PBM binding z-score            0.453
45  CGCCCAAGGTCAAAGGTCAGTGAAGAGATGACGG  VDR homodimer (NR concentration 270 nM)  PBM binding z-score             3.24
46  CCCGCTAGGTCAATGGTCAGCTAAAGCAGCTCGC  VDR homodimer (NR concentration 270 nM)  PBM binding z-score         -0.00101
47  AGTCAAAGTTCAGGAAGAGGTAACGTAAAGCACG  VDR homodimer (NR concentration 270 nM)  PBM binding z-score             1.81
48  AGAATGAGGTTAAGATCAGGGAGACAGAATACAT  VDR homodimer (NR concentration 270 nM)  PBM binding z-score            0.818
49  CAGCCTAGGTCAGGGCCAGTATCGGAGGAACGTT  VDR homodimer (NR concentration 270 nM)  PBM binding z-score           -0.476
50  AGAACGAGGGTACGCTGAGTTGATAGCAGAGTAG  VDR homodimer (NR concentration 270 nM)  PBM binding z-score             2.14
51  CCTACAGGGCCAAAAAGGTCATTGATGCCGATAA  VDR homodimer (NR concentration 270 nM)  PBM binding z-score             3.43
